Tested on: HCV replicon
ASSAY TEXT: HCV replicon luciferase assay
Assay type: cell-based
ASSAY CONDITIONS: Hepatitis C virus, Huh-7, 72 h
Experimental: Cell lines. […] HCV replicon luciferase assay. […] After 3 days incubation at 37° C., cells were analyzed for Renilla Luciferase activity using the EnduRen substrate (Promega cat #E6485) according to the manufacturer's directions. […] The plates were incubated for at least 1 h at 37° C. then read on a Viewlux Imager (PerkinElmer) using a luminescence program. […]
EXPERIMENTAL READOUT: EC50

Answered examples (2):
CCN(c1cc2oc(-c3ccc(F)cc3)c(C(=O)NC)c2cc1-c1cccc(C(=O)NC2(C#N)CCN(C(=O)OC(C)(C)C)CC2)c1)S(C)(=O)=O ... < 100 nM
CCN(CC)c1cc2oc(-c3ccc(F)cc3)c(C(=O)NC)c2cc1-c1cccc(C(=O)N[C@@]2(C)[C@@H](C(=O)OC)C[C@H]3C[C@@H]2C3(C)C)c1 ... 116 nM

Next up:
Q: If you can, please state the reported EC50 value of CCN(CC)c1cc2oc(-c3ccc(F)cc3)c(C(=O)NC)c2cc1-c1cccc(C(=O)NCC2(C#N)CC2)c1 .
A: < 100 nM

----------
System: HCV replicon
ASSAY TEXT: HCV replicon luciferase assay
Type: cell-based
ASSAY CONDITIONS: Hepatitis C virus, Huh-7, 72 h
Answer each item with its documented EC50.

Answered examples (2):
CCNc1cc2oc(-c3ccc(F)cc3)c(C(=O)NC)c2cc1-c1cccc(C(=O)NCC(C)(C)C#N)c1 [Compound 4002] ... < 100 nM
CCN(CC)c1cc2oc(-c3ccc(F)cc3)c(C(=O)NC)c2cc1-c1cccc(C(=O)NC2CCNC2=O)c1 (stereo not shown) [Compound 1026] ... 11.1 nM

Look at each molecule and report its EC50.
1. CCOC(=O)[C@H]1CCCC[C@@H]1NC(=O)c1cccc(-c2cc3c(C(=O)NC)c(-c4ccc(F)cc4)oc3cc2N(CC)CC)c1 [Compound 1007]
2. CCN(CC)c1cc2oc(-c3ccc(F)cc3)c(C(=O)NC)c2cc1-c1cccc(C(=O)N[C@H]2CCCC[C@H]2C(=O)O)c1 [Compound 1047]
3. CCN(CC)c1cc2oc(-c3ccc(F)cc3)c(C(=O)NC)c2cc1-c1cccc(C(=O)NC2CCC(O)C2)c1 (stereo not shown) [Compound 1006]
4. CNC(=O)c1c(-c2ccc(F)cc2)oc2cc(N(CCF)S(C)(=O)=O)c(-c3cccc(C(=O)NCC4CCCC4NC(=O)OC(C)(C)C)c3)cc12 (stereo not shown) [Compound 7001]
5. CNC(=O)c1c(-c2ccc(F)cc2)oc2cc([N+](=O)[O-])c(-c3cccc(C(=O)N(Cc4ccc(OC)cc4OC)C(CO)(CO)CO)c3)cc12 [Compound 3002]

A:
["< 100 nM", "< 100 nM", "44.5 nM", "< 100 nM", "> 1000 nM"]

Look at each molecule and report its EC50.
1. CNC(=O)c1c(-c2ccc(F)cc2)oc2cc(N(CC3CC3)S(C)(=O)=O)c(-c3cccc(C(=O)NC(C)(C)C=O)c3)cc12 [Compound 6001]
2. CCN(c1cc2oc(-c3ccc(F)cc3)c(C(=O)NC)c2cc1-c1cccc(C(=O)NC2(C#N)CCc3cc(OC)ccc3C2)c1)S(C)(=O)=O (stereo not shown) [Compound 5006]
3. CCN(CC)c1cc2oc(-c3ccc(F)cc3)c(C(=O)NC)c2cc1-c1cccc(C(=O)NC2CCOCC2)c1 [Compound 1028]

A:
1. < 100 nM
2. < 100 nM
3. < 100 nM

Look at each molecule and report its EC50.
1. CCNc1cc2oc(-c3ccc(F)cc3)c(C(=O)NC)c2cc1-c1cccc(C(=O)NC(CO)(CO)CO)c1 [Compound 3004]
2. CCOC(=O)CC1(NC(=O)c2cccc(-c3cc4c(C(=O)NC)c(-c5ccc(F)cc5)oc4cc3N(CC)CC)c2)CCCCC1 [Compound 1008]
3. CCNc1cc2oc(-c3ccc(F)cc3)c(C(=O)NC)c2cc1-c1cccc(C(=O)NC2CCNC2=O)c1 (stereo not shown) [Compound 4001]

A:
1. < 100 nM
2. < 100 nM
3. 58.8 nM
